These measurements were taken from patent US8921376B2.

- assayed_target: JAK2 (Homo sapiens)
- Sequence (O60674 whole entry): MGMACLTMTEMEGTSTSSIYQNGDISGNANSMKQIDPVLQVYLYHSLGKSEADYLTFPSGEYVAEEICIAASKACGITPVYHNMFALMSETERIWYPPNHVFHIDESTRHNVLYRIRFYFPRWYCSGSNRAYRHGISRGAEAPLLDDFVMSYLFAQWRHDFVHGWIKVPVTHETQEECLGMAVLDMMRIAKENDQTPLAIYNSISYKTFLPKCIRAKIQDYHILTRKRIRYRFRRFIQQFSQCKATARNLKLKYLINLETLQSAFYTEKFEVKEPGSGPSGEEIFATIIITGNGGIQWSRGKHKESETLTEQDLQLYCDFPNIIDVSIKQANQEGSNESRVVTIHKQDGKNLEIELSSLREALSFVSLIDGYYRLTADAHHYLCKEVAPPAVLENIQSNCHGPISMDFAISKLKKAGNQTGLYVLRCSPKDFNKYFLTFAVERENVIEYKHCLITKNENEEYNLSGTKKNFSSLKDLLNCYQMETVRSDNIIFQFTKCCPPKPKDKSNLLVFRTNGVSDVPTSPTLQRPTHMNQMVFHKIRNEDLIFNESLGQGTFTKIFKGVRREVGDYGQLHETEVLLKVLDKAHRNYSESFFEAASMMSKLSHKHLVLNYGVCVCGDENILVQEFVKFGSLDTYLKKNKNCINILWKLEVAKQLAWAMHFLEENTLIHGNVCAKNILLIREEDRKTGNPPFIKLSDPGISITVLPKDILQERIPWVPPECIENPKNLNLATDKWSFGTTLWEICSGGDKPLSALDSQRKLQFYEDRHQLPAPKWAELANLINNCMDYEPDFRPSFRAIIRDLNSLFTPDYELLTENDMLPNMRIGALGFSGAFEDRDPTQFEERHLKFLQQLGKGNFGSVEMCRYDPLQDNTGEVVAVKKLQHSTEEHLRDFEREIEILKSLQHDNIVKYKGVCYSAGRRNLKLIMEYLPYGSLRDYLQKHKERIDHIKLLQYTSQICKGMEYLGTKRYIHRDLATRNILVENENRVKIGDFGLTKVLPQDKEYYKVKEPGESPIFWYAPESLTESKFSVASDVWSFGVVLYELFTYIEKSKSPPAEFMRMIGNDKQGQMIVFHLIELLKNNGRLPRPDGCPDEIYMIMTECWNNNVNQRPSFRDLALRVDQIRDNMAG
- test_description: JAK2 inhibition assay (as Example 3 with JAK-2 enzyme)
- Assay type: biochemical
- measurement_conditions: Table 6; enzyme inhibition data (Ki)
recorded_metric: Ki

Exercise: Give recorded Ki with JAK2 (Homo sapiens) for the following compound: CC(C)[C@@H]1CC[C@@H](C)C[C@H]1Nc1c(Cl)cnc2[nH]ccc12
Solution: 500 to 5000 nM

Exercise: What value of Ki on JAK2 (Homo sapiens) does O=C(NC1CCC1)c1cc(-c2ccnc3[nH]ccc23)c[nH]1 have?
Solution: < 500 nM

Exercise: Form field - read-out: Ki; system: JAK2 (Homo sapiens); submitted item: CC(C)[C@H](C(=O)NCC(F)(F)F)n1ccc2cnc(-c3ccnc4[nH]ccc34)nc21
Solution: < 500 nM

Exercise: # returns recorded Ki (system: JAK2 (Homo sapiens)) for O=C(NCC(F)(F)F)c1cc(-c2c(Cl)cnc3[nH]ccc23)c[nH]1
Solution: < 500 nM

###

Exercise: for every item that follows, state its recorded pKi.
- assayed_target: JAK3 (Homo sapiens, UniProt P52333)
- Sequence (P52333 whole entry): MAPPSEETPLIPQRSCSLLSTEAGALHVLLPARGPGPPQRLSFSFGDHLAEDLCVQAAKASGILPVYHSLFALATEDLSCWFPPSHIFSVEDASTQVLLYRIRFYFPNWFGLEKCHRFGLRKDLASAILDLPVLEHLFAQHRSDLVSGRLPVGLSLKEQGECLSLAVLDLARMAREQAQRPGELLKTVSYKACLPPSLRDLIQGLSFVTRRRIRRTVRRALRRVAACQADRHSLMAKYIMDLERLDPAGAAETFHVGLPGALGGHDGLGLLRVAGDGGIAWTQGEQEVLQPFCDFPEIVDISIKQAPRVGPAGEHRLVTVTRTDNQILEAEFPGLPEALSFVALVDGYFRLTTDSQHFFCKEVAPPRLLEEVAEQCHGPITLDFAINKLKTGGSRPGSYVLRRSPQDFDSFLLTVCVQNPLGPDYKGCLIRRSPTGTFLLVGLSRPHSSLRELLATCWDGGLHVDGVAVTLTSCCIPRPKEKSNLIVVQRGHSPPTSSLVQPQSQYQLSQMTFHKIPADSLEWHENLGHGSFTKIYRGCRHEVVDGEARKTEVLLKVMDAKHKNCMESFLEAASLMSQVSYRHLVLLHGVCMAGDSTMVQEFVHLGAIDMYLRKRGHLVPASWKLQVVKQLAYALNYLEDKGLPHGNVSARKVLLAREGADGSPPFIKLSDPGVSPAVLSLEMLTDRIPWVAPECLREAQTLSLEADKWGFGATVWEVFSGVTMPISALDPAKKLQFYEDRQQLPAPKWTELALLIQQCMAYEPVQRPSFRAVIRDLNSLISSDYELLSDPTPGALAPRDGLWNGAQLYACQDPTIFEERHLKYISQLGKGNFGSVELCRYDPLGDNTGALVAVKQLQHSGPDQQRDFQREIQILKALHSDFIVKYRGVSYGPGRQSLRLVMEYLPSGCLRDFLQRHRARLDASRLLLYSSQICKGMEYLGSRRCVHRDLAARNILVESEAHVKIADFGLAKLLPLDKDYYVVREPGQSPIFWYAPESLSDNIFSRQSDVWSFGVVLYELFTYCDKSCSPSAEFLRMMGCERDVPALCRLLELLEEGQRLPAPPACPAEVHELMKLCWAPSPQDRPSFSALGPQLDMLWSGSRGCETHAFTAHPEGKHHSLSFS
- test_description: JAK3 inhibition assay (33P incorporation into poly(Glu)4Tyr)
- Type: biochemical
- measurement_conditions: Table 6; enzyme inhibition data (Ki)
- Procedure: Compounds were screened for their ability to inhibit JAK using the assay shown below. Reactions were carried out in a kinase buffer containing 100 mM HEPES (pH 7.4), 1 mM DTT, 10 mM MgCl2, 25 mM NaCl, and 0.01% BSA. […] To each well of a 96 well polycarbonate plate was added 1.5 μl of a candidate JAK3 inhibitor along with 50/1 of kinase buffer containing 2 μM poly(Glu)4Tyr and 10 μM ATP. […] After washing, 60 μl of scintillation fluid was added and ^33P incorporation detected on a Perkin Elmer TopCount.
pKi: −log10 of the molar value.

Exercise: Kindly state the measured pKi obtained for COCCN(CCOC)C(=O)c1ccc(-c2ccnc3[nH]ccc23)s1 with JAK3 (Homo sapiens, UniProt P52333).
Solution: > 6.30

Exercise: Request - read-out pKi | tested on JAK3 (Homo sapiens, UniProt P52333) | compound CN(Cc1cccnc1)C(=O)c1cc(-c2ccnc3[nH]ccc23)c[nH]1
Solution: > 6.30

Exercise: Please tell me: pKi of CC1CCCC(Nc2c(Cl)cnc3[nH]ccc23)C1 (stereo not shown) , system JAK3 (Homo sapiens, UniProt P52333)?
Solution: > 6.30

Exercise: // fetch JAK3 (Homo sapiens, UniProt P52333) pKi for O=C(c1csc(-c2ccnc3[nH]ccc23)n1)N(CCC(F)(F)F)CC1CC1
Solution: > 6.30

Exercise: Under JAK3 (Homo sapiens, UniProt P52333): pKi value of CS(=O)(=O)N1CC[C@@H](Nc2c(Cl)cnc3[nH]ccc23)C1 ?
Solution: > 6.30

Exercise: Recorded pKi for CS(=O)(=O)N1CC[C@H](Nc2c(Cl)cnc3[nH]ccc23)C1 with JAK3 (Homo sapiens, UniProt P52333), please?
Solution: > 6.30

Exercise: Give JAK3 (Homo sapiens, UniProt P52333) pKi for CC(C)NC(=O)c1cc(-c2ccnc3[nH]ccc23)c[nH]1
Solution: > 6.30

Exercise: What reported pKi corresponds to CN(C)C1CCN(C(=O)c2cc(-c3c(Cl)cnc4[nH]ccc34)c[nH]2)C1 (stereo not shown) on JAK3 (Homo sapiens, UniProt P52333)?
Solution: 5.30 to 6.30

Exercise: Find the measured pKi: item O=C(O)c1ccccc1-c1ccnc2[nH]ccc12 , target or system JAK3 (Homo sapiens, UniProt P52333).
Solution: < 5.30

Exercise: For JAK3 (Homo sapiens, UniProt P52333), provide pKi of CCOC(=O)C1CCN(C(=O)c2cc(-c3c(Cl)cnc4[nH]ccc34)c[nH]2)CC1 please.
Solution: 5.30 to 6.30

Exercise: Write down the reported pKi of CN(CCc1ccccn1)C(=O)c1cc(-c2ccnc3[nH]ccc23)c[nH]1 , test system: JAK3 (Homo sapiens, UniProt P52333).
Solution: > 6.30

Exercise: Report pKi for COC(=O)N1CC[C@@H](Nc2c(Cl)cnc3[nH]ccc23)C1 tested on JAK3 (Homo sapiens, UniProt P52333).
Solution: > 6.30

Exercise: Item: CC(C)Oc1ccccc1-c1ccnc2[nH]ccc12 Test system: JAK3 (Homo sapiens, UniProt P52333) Read-out: pKi Value: ?
Solution: 5.30 to 6.30

Exercise: Entry CCCN(CCC)C(=O)c1ccc(-c2ccnc3[nH]ccc23)s1 , system JAK3 (Homo sapiens, UniProt P52333): what pKi was measured?
Solution: > 6.30

Exercise: JAK3 (Homo sapiens, UniProt P52333) / pKi / N#CCCN(Cc1cccnc1)C(=O)c1cc(-c2ccnc3[nH]ccc23)c[nH]1 : value?
Solution: > 6.30

Exercise: Param readout= pKi; system= JAK3 (Homo sapiens, UniProt P52333); entry= CCCNC(=O)c1cc(-c2c(Cl)cnc3[nH]ccc23)c[nH]1 ; returns value.
Solution: > 6.30

Exercise: Could you share what pKi was measured for c1ccc(-c2ccccc2-c2ccnc3[nH]ccc23)cc1 , tested on JAK3 (Homo sapiens, UniProt P52333)?
Solution: < 5.30

Exercise: Form: Entry = Cc1noc(C)c1-c1c(Cl)cnc2[nH]ccc12 | System = JAK3 (Homo sapiens, UniProt P52333) | pKi = ____
Solution: < 5.30

Exercise: Quick check: pKi on JAK3 (Homo sapiens, UniProt P52333), item CCCN(CCC#N)C(=O)c1ccc(-c2ccnc3[nH]ccc23)s1 ?
Solution: > 6.30
